Source listed as patent US20130177609A1.

- Experiment notes: Example 1: ocular tissue pharmacokinetics after topical dose, increasing dose volume at constant drug concentration
- Type: in vivo, pigmented male rabbits (Dutch Belted)
- Condition summary: male, Dutch Belted, rabbit, topical or ocular, 3 ug; Conjunctiva; 30 μL of 0.1 mg/mL suspension (3 μg), topical ocular
Quantity: Tmax (min)

- Cc1ccc2c(NCC(O)(CC(C)(C)c3cc(F)cc4c3OCC4)C(F)(F)F)cccc2n1 (stereo not shown): 4.98

###

- Experiment notes: Example 1: ocular tissue pharmacokinetics after topical dose, increasing dose volume at constant drug concentration
- Format: in vivo, pigmented male rabbits (Dutch Belted)
- Condition summary: male, Dutch Belted, rabbit, topical or ocular, 10 ug; Cornea; 100 μL of 0.1 mg/mL suspension (10 μg), topical ocular
Quantity: Tmax (min)

- Cc1ccc2c(NCC(O)(CC(C)(C)c3cc(F)cc4c3OCC4)C(F)(F)F)cccc2n1 (stereo not shown): 4.98

###

- Experiment notes: Example 2: ocular tissue pharmacokinetics after topical dose, decreasing dose volume at same total amount of drug
- Type: in vivo, New Zealand Composite pigmented rabbits
- Condition summary: New Zealand Composite pigmented, rabbit, cornea, topical or ocular, 10 ug; 30 μL/eye of 0.33 mg/mL (10 μg), topical ocular
- Protocol: This study was carried out using a non-crossover design involving a total of 84 New Zealand Composite pigmented rabbits arbitrarily divided into 3 groups of 28 rabbits each. […] The compositions were shipped to the test site as a ready-to-use suspension. […] At predetermined time intervals after dosing, rabbits (four per collection time) were euthanized after anesthetization and the eyes enucleated and dissected. […] BOL-303242-X concentrations in the above tissues and matrices were determined by LC/MS/MS. […]
Quantity: Cmax (ng/g)

* Cc1ccc2c(NCC(O)(CC(C)(C)c3cc(F)cc4c3OCC4)C(F)(F)F)cccc2n1 (stereo not shown) | 592

###

- Experiment notes: Example 1: ocular tissue pharmacokinetics after topical dose, increasing dose volume at constant drug concentration
- Format: in vivo, pigmented male rabbits (Dutch Belted)
- Condition summary: male, Dutch Belted, rabbit, topical or ocular, 3 ug; Tear; 30 μL of 0.1 mg/mL suspension (3 μg), topical ocular
Quantity: Tmax

• Cc1ccc2c(NCC(O)(CC(C)(C)c3cc(F)cc4c3OCC4)C(F)(F)F)cccc2n1 (stereo not shown) = 15 min

###

- Experiment notes: Example 2: ocular tissue pharmacokinetics after topical dose, decreasing dose volume at same total amount of drug
- Assay type: in vivo, New Zealand Composite pigmented rabbits
- Condition summary: New Zealand Composite pigmented, rabbit, iris/ciliary body, topical or ocular, 10 ug; 100 μL/eye of 0.1 mg/mL (10 μg), topical ocular
Quantity: Tmax (h)

* Cc1ccc2c(NCC(O)(CC(C)(C)c3cc(F)cc4c3OCC4)C(F)(F)F)cccc2n1 (stereo not shown) | 1

###

- Experiment notes: Example 1: ocular tissue pharmacokinetics after topical dose, increasing dose volume at constant drug concentration
- Assay type: in vivo, pigmented male rabbits (Dutch Belted)
- Condition summary: male, Dutch Belted, rabbit, topical or ocular, 10 ug; Conjunctiva; 100 μL of 0.1 mg/mL suspension (10 μg), topical ocular
Quantity: Tmax

- Cc1ccc2c(NCC(O)(CC(C)(C)c3cc(F)cc4c3OCC4)C(F)(F)F)cccc2n1 (stereo not shown) [BOL-303242-X]: 4.98 min

###

- Experiment notes: Example 1: ocular tissue pharmacokinetics after topical dose, increasing dose volume at constant drug concentration
- Type: in vivo, pigmented male rabbits (Dutch Belted)
- Condition summary: male, Dutch Belted, rabbit, topical or ocular, 1 ug; Cornea; 10 μL of 0.1 mg/mL suspension (1 μg), topical ocular
Quantity: Cmax (ng/g)

* Cc1ccc2c(NCC(O)(CC(C)(C)c3cc(F)cc4c3OCC4)C(F)(F)F)cccc2n1 (stereo not shown) [BOL-303242-X] | 288

###

- Experiment notes: Example 1: ocular tissue pharmacokinetics after topical dose, increasing dose volume at constant drug concentration
- Format: in vivo, pigmented male rabbits (Dutch Belted)
- Condition summary: male, Dutch Belted, rabbit, topical or ocular, 1 ug; Iris/Ciliary Body; 10 μL of 0.1 mg/mL suspension (1 μg), topical ocular
Quantity: Cmax (ng/g)

- Cc1ccc2c(NCC(O)(CC(C)(C)c3cc(F)cc4c3OCC4)C(F)(F)F)cccc2n1 (stereo not shown): 19.6

###

- Experiment notes: Example 2: ocular tissue pharmacokinetics after topical dose, decreasing dose volume at same total amount of drug
- Assay type: in vivo, New Zealand Composite pigmented rabbits
- Condition summary: New Zealand Composite pigmented, rabbit, conjunctiva, topical or ocular, 10 ug; 30 μL/eye of 0.33 mg/mL (10 μg), topical ocular
Quantity: Tmax (min)

• Cc1ccc2c(NCC(O)(CC(C)(C)c3cc(F)cc4c3OCC4)C(F)(F)F)cccc2n1 (stereo not shown) = 15

###

- Experiment notes: Example 2: ocular tissue pharmacokinetics after topical dose, decreasing dose volume at same total amount of drug
- Format: in vivo, New Zealand Composite pigmented rabbits
- Condition summary: New Zealand Composite pigmented, rabbit, aqueous humor, topical or ocular, 10 ug, Aqueous Humor; 100 μL/eye of 0.1 mg/mL (10 μg), topical ocular; read-out: AUC(0-t)
Quantity: AUC(0-t) (ng·h/mL)

* Cc1ccc2c(NCC(O)(CC(C)(C)c3cc(F)cc4c3OCC4)C(F)(F)F)cccc2n1 (stereo not shown) | 7

###

- Experiment notes: Example 2: ocular tissue pharmacokinetics after topical dose, decreasing dose volume at same total amount of drug
- Assay type: in vivo, New Zealand Composite pigmented rabbits
- Condition summary: New Zealand Composite pigmented, rabbit, aqueous humor, topical or ocular, 10 ug; 10 μL/eye of 1 mg/mL (10 μg), topical ocular
Quantity: Tmax (h)

* Cc1ccc2c(NCC(O)(CC(C)(C)c3cc(F)cc4c3OCC4)C(F)(F)F)cccc2n1 (stereo not shown) | 2

###

- Experiment notes: Example 2: ocular tissue pharmacokinetics after topical dose, decreasing dose volume at same total amount of drug
- Assay type: in vivo, New Zealand Composite pigmented rabbits
- Condition summary: New Zealand Composite pigmented, rabbit, tears, topical or ocular, 10 ug; 10 μL/eye of 1 mg/mL (10 μg), topical ocular
Quantity: Tmax (min)

* Cc1ccc2c(NCC(O)(CC(C)(C)c3cc(F)cc4c3OCC4)C(F)(F)F)cccc2n1 (stereo not shown) | 15

###

- Experiment notes: Example 1: ocular tissue pharmacokinetics after topical dose, increasing dose volume at constant drug concentration
- Type: in vivo, pigmented male rabbits (Dutch Belted)
- Condition summary: male, Dutch Belted, rabbit, topical or ocular, 10 ug; Iris/Ciliary Body; 100 μL of 0.1 mg/mL suspension (10 μg), topical ocular
Quantity: Cmax (ng/g)

* Cc1ccc2c(NCC(O)(CC(C)(C)c3cc(F)cc4c3OCC4)C(F)(F)F)cccc2n1 (stereo not shown) | 11.3

###

- Experiment notes: Example 2: ocular tissue pharmacokinetics after topical dose, decreasing dose volume at same total amount of drug
- Type: in vivo, New Zealand Composite pigmented rabbits
- Condition summary: New Zealand Composite pigmented, rabbit, iris/ciliary body, topical or ocular, 10 ug; 10 μL/eye of 1 mg/mL (10 μg), topical ocular
Quantity: Tmax (h)

- Cc1ccc2c(NCC(O)(CC(C)(C)c3cc(F)cc4c3OCC4)C(F)(F)F)cccc2n1 (stereo not shown) [BOL-303242-X]: 2

###

- Experiment notes: Example 2: ocular tissue pharmacokinetics after topical dose, decreasing dose volume at same total amount of drug
- Type: in vivo, New Zealand Composite pigmented rabbits
- Condition summary: New Zealand Composite pigmented, rabbit, tears, topical or ocular, 10 ug; 30 μL/eye of 0.33 mg/mL (10 μg), topical ocular
- Description: This study was carried out using a non-crossover design involving a total of 84 New Zealand Composite pigmented rabbits arbitrarily divided into 3 groups of 28 rabbits each. […] The compositions were shipped to the test site as a ready-to-use suspension. […] At predetermined time intervals after dosing, rabbits (four per collection time) were euthanized after anesthetization and the eyes enucleated and dissected. […] BOL-303242-X concentrations in the above tissues and matrices were determined by LC/MS/MS. […]
Quantity: Tmax

• Cc1ccc2c(NCC(O)(CC(C)(C)c3cc(F)cc4c3OCC4)C(F)(F)F)cccc2n1 (stereo not shown) [BOL-303242-X] = 4.98 min

###

- Experiment notes: Example 2: ocular tissue pharmacokinetics after topical dose, decreasing dose volume at same total amount of drug
- Type: in vivo, New Zealand Composite pigmented rabbits
- Condition summary: New Zealand Composite pigmented, rabbit, conjunctiva, topical or ocular, 10 ug; 10 μL/eye of 1 mg/mL (10 μg), topical ocular
Quantity: Cmax (ng/g)

* Cc1ccc2c(NCC(O)(CC(C)(C)c3cc(F)cc4c3OCC4)C(F)(F)F)cccc2n1 (stereo not shown) | 399

###

- Experiment notes: Example 1: ocular tissue pharmacokinetics after topical dose, increasing dose volume at constant drug concentration
- Format: in vivo, pigmented male rabbits (Dutch Belted)
- Condition summary: male, Dutch Belted, rabbit, topical or ocular, 3 ug; Tear; 30 μL of 0.1 mg/mL suspension (3 μg), topical ocular
Quantity: Cmax (ng/g)

- Cc1ccc2c(NCC(O)(CC(C)(C)c3cc(F)cc4c3OCC4)C(F)(F)F)cccc2n1 (stereo not shown): 28100
